- protocol.text: AUC (0 to t) in Sprague-Dawley rat at 4 mg/kg, ip measured upto 48 hrs
- Type: ADME, organism-based
- settings: in vivo
endpoint.name: AUC(0-t) at 48 h (ng·h/mL)

compound	value.units	result.number
Cc1cc(-c2nc(Nc3cnn(C4CCN(CC5CCN(c6ccc7c(c6)C(=O)N(C6CCC(=O)NC6=O)C7=O)CC5)CC4)c3)ncc2F)ccc1CNC(=O)c1cn(C(C)(C)C)nn1 (configuration not stated)	ng·h/mL	2800
C=CC(=O)N1CCC[C@@H](n2nc(-c3ccc(Oc4ccccc4)cc3)c3c(N)ncnc32)C1	ng·h/mL	11200

* * *

- protocol.text: AUC (0 to t) in Sprague-Dawley rat at 2 mg/kg, iv measured upto 48 hrs
- Assay type: ADME, organism-based
- settings: in vivo
endpoint.name: AUC(0-t) at 48 h

compound	endpoint.name	result
Cc1cc(-c2nc(Nc3cnn(C4CCN(CC5CCN(c6ccc7c(c6)C(=O)N(C6CCC(=O)NC6=O)C7=O)CC5)CC4)c3)ncc2F)ccc1CNC(=O)c1cn(C(C)(C)C)nn1 (stereo unspecified)	AUC(0-t) at 48 h	2.34 µg·h/mL
